# SUBJECT_OF_TEST: T1, polypeptide GC3pep (human)
# T1 construct: also called membrane proximal polypeptide GC3pep
# T1 peptide: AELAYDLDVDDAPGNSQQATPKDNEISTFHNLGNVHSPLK
# ASSAY_METHOD_TEXT: ELISA, GC3pep coated, antibody 10 nM;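 further: antibody bound to the coated peptide for 2 h at 37 °C, detected through an HRP-conjugated secondary antibody with TMB colour development stopped by acid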
ATTRIBUTE_MEASURED: OD450 nm (OD450 nm)
Numbers only; they are read as OD450 nm.

Identify the reported OD450 nm for the following entry. F1.118.4 (antibody, human IgG1, kappa, V domains shown, human-murine chimeric antibody) VH: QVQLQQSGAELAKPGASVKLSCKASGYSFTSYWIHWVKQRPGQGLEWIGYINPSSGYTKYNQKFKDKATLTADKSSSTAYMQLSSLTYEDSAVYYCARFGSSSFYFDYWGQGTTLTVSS VL: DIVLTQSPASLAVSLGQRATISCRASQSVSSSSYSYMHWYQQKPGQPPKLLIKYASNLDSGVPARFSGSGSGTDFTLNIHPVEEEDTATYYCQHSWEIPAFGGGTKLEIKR 0.05

Identify the reported OD450 nm for the following entry. F1.115.8 (antibody, human IgG1, kappa, V domains shown, human-murine chimeric antibody) VH: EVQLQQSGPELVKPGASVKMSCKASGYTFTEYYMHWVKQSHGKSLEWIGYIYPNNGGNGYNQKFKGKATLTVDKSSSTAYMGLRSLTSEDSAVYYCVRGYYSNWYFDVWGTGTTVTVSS VL: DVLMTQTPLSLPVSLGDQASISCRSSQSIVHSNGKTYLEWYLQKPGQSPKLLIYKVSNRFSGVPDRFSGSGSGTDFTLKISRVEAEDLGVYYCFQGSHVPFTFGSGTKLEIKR 0.05

Identify the reported OD450 nm for the following entry. F1.83.6 (antibody, human IgG1, kappa, V domains shown, human-murine chimeric antibody) VH: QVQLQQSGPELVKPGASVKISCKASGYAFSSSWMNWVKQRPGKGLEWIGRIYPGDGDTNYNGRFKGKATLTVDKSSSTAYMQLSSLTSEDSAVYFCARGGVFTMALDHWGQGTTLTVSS VL: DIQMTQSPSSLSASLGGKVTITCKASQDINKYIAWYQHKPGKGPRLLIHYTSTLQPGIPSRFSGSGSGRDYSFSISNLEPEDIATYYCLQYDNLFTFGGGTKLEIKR 0.06
